Values compiled from paper PMC12431657.

system: HCoV-229E; parameters: species or system Huh-7; HTS, protection from HCoV-229E induced cell death, luminescent cell viability (CellCounting-Lite 2.0), inhibition rate; conditions: 24 h post infection, 1 h compound pre-incubation; 10 µM; inhibitor
The campaign covered roughly 3,300 compounds. About 95 (3%) showed an effect of 50% or more. The full list was thinned out, with strong results kept by preference.
Assign TRUE to entries whose 229E Inhibition rate meets or exceeds 20%; assign FALSE to the rest.

Ask | Is it the case that O=c1c(-c2ccc(O)cc2)coc2cc(O)cc(O)c12 has 229E Inhibition rate reaching or exceeding 20%?
Reply | FALSE

Ask | Is it the case that C[C@H]1CC[C@@H]2N(C1)C[C@H]1[C@@H]3C[C@H]4[C@@H](CC(=O)[C@H]5C[C@@H](O[C@@H]6O[C@H](CO)[C@@H](O)[C@H](O)[C@H]6O)CC[C@@]54C)[C@@H]3CC[C@@H]1[C@]2(C)O has 229E Inhibition rate reaching or exceeding 20%?
Reply | FALSE

Ask | Is it the case that CC(C)=CCc1c(-c2ccc(O)cc2O)oc2c(CC=C(C)C)c(O)cc(O)c2c1=O has 229E Inhibition rate reaching or exceeding 20%?
Reply | TRUE

Ask | Is it the case that CC(C)=CCc1c(O)cc(O)c2c(=O)c(-c3ccc(O)cc3)coc12 has 229E Inhibition rate reaching or exceeding 20%?
Reply | TRUE

Ask | Is it the case that CC(C)=CCc1c(O)cc(O)c2c(=O)cc(-c3ccc(O)cc3)oc12 has 229E Inhibition rate reaching or exceeding 20%?
Reply | TRUE

Next:
Ask | Is it the case that Nc1nc(=O)n([C@H]2C[C@H](O)[C@@H](CO)O2)cc1CO [5-Hydroxymethyl-2’-deoxycytidine] has 229E Inhibition rate reaching or exceeding 20%?
Reply | FALSE

Ask | Is it the case that O=C(/C=C/c1ccc(O)c(O)c1)OC[C@@H](O)CO[C@@H]1O[C@H](CO)[C@@H](O)[C@H](O)[C@H]1O [Regaloside C] has 229E Inhibition rate reaching or exceeding 20%?
Reply | TRUE

Ask | Is it the case that Oc1cc2cc[nH]c2cc1O [5,6-Dihydroxyindole] has 229E Inhibition rate reaching or exceeding 20%?
Reply | FALSE

----------
tested on: HCoV-229E; parameters: species or system Huh-7; HTS, protection from HCoV-229E induced cell death, luminescent cell viability (CellCounting-Lite 2.0), inhibition rate; conditions: 24 h post infection, 1 h compound pre-incubation; 10 µM; inhibitor
About 95 (3%) of roughly 3,300 compounds showed an effect of 50% or more. The list comes from a sample in which strong results are over-represented; it also holds close analogues and randomly drawn compounds.
What 229E Inhibition rate was measured for each of the following?
One number for each entry, in %.

Some solved cases for reference:
Ask | Quick one: 229E Inhibition rate for CC(C)CCC[C@@H](C)[C@H]1CC[C@H]2[C@@H]3CC=C4C[C@@H](O)CC[C@]4(C)[C@H]3CC[C@]12C [Cholesterol] ?
Reply | 13.1

Ask | Quick one: 229E Inhibition rate for C[C@H](CC[C@@H](O[C@@H]1O[C@H](CO[C@@H]2O[C@H](CO)[C@@H](O)[C@H](O)[C@H]2O)[C@@H](O)[C@H](O)[C@H]1O[C@@H]1O[C@H](CO)[C@@H](O)[C@H](O)[C@H]1O)C(C)(C)O)[C@H]1CC[C@@]2(C)[C@@H]3CC=C4[C@@H](CC[C@H](O[C@@H]5O[C@H](CO[C@@H]6O[C@H](CO)[C@@H](O)[C@H](O)[C@H]6O)[C@@H](O)[C@H](O)[C@H]5O)C4(C)C)[C@]3(C)C(=O)C[C@]12C [11-oxo-mogroside V] ?
Reply | 0

Ask | Quick one: 229E Inhibition rate for C=C1C[C@@]23CC[C@H]4[C@@](C)(CCC[C@@]4(C)C(=O)O)[C@@H]2CC[C@@H]1C3 [Kaurenoic acid] ?
Reply | 8.8

Ask | Quick one: 229E Inhibition rate for CC(C)CCC[C@](C)(O)[C@H]1CC[C@H]2[C@@H]3CC=C4C[C@@H](O)CC[C@]4(C)[C@H]3CC[C@@]21C [20(S)-Hydroxycholesterol] ?
Reply | 57

Ask | Quick one: 229E Inhibition rate for COC(=O)[C@]1(O)C[C@@H](O)[C@@H](O)[C@H](OC(=O)/C=C/c2ccc(O)c(O)c2)C1 [3-O-Caffeoylquinic acid methyl ester] ?
Reply | 24.2

Ask | Quick one: 229E Inhibition rate for COc1ccc(C2COc3cc(O)ccc3C2)c(O)c1OC (stereo not shown) [Isomucronulatol] ?
Reply | 9.8

Ask | Quick one: 229E Inhibition rate for CC(C)(O)[C@H]1CC[C@@](C)([C@H]2[C@@H](O)C[C@@]3(C)[C@@H]4C[C@H](O)[C@H]5C(C)(C)[C@@H](O)CC[C@@]56C[C@@]46CC[C@]23C)O1 [Cyclogalegenin] ?
Reply | 12.6

Ask | Quick one: 229E Inhibition rate for Nc1ccccc1S(=O)(=O)O [2-Aminobenzenesulfonic acid] ?
Reply | 0

Ask | Quick one: 229E Inhibition rate for C[C@H](CCCC(C)(C)O)[C@H]1CC[C@H]2[C@@H]3CC=C4C[C@@H](O)CC[C@]4(C)[C@H]3CC[C@]12C [25-Hydroxycholesterol] ?
Reply | 3.1

Ask | Quick one: 229E Inhibition rate for O=c1ccc2cc(O)c(O)cc2o1 [Esculetin] ?
Reply | 35.1

Please supply 229E Inhibition rate for each of the following items, keeping them in order.
1. C=C[C@H]1CN2CC[C@]3(C(=O)Nc4ccccc43)[C@@H]2C[C@@H]1/C(=C\OC)C(=O)OC [Corynoxeine]
2. CC[C@]12CCCN3CCc4c(n(c5ccccc45)[C@@](O)(C(=O)OC)C1)[C@@H]32 [Vincamine]
3. CC(C)(O)[C@@H]1CC[C@](C)([C@H]2[C@@H](O)C[C@@]3(C)[C@@H]4C[C@H](O)[C@H]5C(C)(C)[C@@H](O)CC[C@@]56C[C@@]46CC[C@]23C)O1 [Cycloastragenol]

Reply |
1: 15.2; 2: 16.6; 3: 8.6
